STUDY SYSTEM: Serine/threonine-protein kinase PAK 4 (Homo sapiens, UniProt O96013)
ASSAY NOTES: Inhibition of human recombinant PAK4
pIC50: −log10 of the molar value.
ATTRIBUTE MEASURED: pIC50

Query: Looking for the measured pIC50 of `CN(C)CCCNC(=O)c1csc2nc(-c3ccc(NC(=O)Nc4cc(C(C)(C)C)on4)cc3)cn12` , can you help?
Response: < 5.00

====

STUDY SYSTEM: Serine/threonine-protein kinase/endoribonuclease IRE1 (Homo sapiens)
ASSAY NOTES: Inhibition of human recombinant IRE1
ATTRIBUTE MEASURED: IC50

Query: Looking for the measured IC50 of `CN(C)CCCNC(=O)c1csc2nc(-c3ccc(NC(=O)Nc4cc(C(C)(C)C)on4)cc3)cn12` , can you help?
Response: > 10 µM

====

STUDY SYSTEM: Aurora kinase A (Homo sapiens)
Sequence (O14965 whole entry): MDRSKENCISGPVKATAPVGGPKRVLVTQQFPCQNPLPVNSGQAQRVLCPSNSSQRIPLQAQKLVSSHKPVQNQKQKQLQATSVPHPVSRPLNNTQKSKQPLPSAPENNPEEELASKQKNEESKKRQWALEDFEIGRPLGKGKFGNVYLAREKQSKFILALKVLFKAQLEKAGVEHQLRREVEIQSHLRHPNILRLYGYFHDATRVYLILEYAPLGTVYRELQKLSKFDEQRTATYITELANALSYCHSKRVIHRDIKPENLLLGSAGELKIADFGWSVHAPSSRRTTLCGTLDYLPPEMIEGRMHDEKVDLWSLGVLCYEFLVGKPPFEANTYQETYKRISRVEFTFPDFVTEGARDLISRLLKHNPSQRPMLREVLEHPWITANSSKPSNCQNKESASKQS
ASSAY NOTES: Inhibition of human recombinant Aurora-A
ATTRIBUTE MEASURED: IC50

Query: Looking for the measured IC50 of `CN(C)CCCNC(=O)c1csc2nc(-c3ccc(NC(=O)Nc4cc(C(C)(C)C)on4)cc3)cn12` , can you help?
Response: > 10 µM

====

STUDY SYSTEM: Cytoplasmic tyrosine-protein kinase BMX (Homo sapiens, UniProt P51813)
ASSAY NOTES: Inhibition of human recombinant Bmx
pIC50: −log10 of the molar value.
ATTRIBUTE MEASURED: pIC50

Query: Looking for the measured pIC50 of `CN(C)CCCNC(=O)c1csc2nc(-c3ccc(NC(=O)Nc4cc(C(C)(C)C)on4)cc3)cn12` , can you help?
Response: < 5.00

====

STUDY SYSTEM: Tyrosine-protein kinase Fes/Fps (Homo sapiens, UniProt P07332)
Sequence (P07332 whole entry): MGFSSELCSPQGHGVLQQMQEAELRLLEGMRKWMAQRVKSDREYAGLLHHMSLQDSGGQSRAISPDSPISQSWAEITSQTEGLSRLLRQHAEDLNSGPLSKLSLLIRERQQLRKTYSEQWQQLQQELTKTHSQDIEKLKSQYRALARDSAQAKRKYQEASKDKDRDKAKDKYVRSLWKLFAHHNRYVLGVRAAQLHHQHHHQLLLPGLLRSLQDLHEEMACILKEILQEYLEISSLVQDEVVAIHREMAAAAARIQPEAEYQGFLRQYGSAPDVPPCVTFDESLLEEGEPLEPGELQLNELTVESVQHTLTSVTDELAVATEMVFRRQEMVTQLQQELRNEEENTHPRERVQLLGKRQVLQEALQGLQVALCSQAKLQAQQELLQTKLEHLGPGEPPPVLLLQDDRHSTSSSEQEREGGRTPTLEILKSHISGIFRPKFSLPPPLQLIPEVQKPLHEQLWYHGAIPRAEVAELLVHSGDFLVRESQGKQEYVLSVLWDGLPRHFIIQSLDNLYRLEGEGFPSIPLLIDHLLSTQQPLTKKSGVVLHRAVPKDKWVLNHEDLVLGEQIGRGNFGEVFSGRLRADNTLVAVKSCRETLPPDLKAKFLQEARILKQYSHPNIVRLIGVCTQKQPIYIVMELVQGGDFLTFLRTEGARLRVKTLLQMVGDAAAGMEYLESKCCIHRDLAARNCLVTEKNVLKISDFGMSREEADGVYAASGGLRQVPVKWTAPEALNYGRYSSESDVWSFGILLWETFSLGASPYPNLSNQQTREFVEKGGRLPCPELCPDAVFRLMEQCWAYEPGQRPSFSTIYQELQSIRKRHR
ASSAY NOTES: Inhibition of human recombinant Fes
pIC50: −log10 of the molar value.
ATTRIBUTE MEASURED: pIC50

Query: Looking for the measured pIC50 of `CN(C)CCCNC(=O)c1csc2nc(-c3ccc(NC(=O)Nc4cc(C(C)(C)C)on4)cc3)cn12` , can you help?
Response: < 5.00

====

STUDY SYSTEM: Ribosomal protein S6 kinase alpha-1 (Homo sapiens, UniProt Q15418)
Sequence (Q15418 whole entry): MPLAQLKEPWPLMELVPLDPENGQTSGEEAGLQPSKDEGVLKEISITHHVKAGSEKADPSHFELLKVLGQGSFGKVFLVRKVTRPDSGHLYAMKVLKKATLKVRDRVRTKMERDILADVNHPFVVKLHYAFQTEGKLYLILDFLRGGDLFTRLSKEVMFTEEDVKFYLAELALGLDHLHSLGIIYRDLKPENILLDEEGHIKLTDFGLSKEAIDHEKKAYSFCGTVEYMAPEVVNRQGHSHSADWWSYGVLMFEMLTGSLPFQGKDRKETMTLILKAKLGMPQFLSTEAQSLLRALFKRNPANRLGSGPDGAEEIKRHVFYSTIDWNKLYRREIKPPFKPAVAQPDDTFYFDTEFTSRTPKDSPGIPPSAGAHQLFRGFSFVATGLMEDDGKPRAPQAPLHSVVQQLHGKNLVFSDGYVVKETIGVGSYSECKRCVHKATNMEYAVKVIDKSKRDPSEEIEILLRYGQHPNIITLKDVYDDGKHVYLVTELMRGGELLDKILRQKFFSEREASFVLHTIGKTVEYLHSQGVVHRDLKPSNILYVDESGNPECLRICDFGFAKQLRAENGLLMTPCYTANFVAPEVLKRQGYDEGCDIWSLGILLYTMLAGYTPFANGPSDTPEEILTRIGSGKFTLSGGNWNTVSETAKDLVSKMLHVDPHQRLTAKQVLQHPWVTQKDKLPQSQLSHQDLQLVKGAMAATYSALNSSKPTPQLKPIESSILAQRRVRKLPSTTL
ASSAY NOTES: Inhibition of human recombinant Rsk1
ATTRIBUTE MEASURED: IC50

Query: Looking for the measured IC50 of `CN(C)CCCNC(=O)c1csc2nc(-c3ccc(NC(=O)Nc4cc(C(C)(C)C)on4)cc3)cn12` , can you help?
Response: > 10 µM

====

STUDY SYSTEM: Macrophage colony-stimulating factor 1 receptor (Homo sapiens)
ASSAY NOTES: Inhibition of human recombinant Fms
ATTRIBUTE MEASURED: pIC50
One number for each entry, as −log10 of the molar value.

Query: Looking for the measured pIC50 of `CN(C)CCCNC(=O)c1csc2nc(-c3ccc(NC(=O)Nc4cc(C(C)(C)C)on4)cc3)cn12` , can you help?
Response: 7.37

====

STUDY SYSTEM: Proto-oncogene tyrosine-protein kinase receptor Ret (Homo sapiens)
ASSAY NOTES: Inhibition of human recombinant Ret
ATTRIBUTE MEASURED: IC50 (nM)
Give bare numbers, in nM.

Query: Notebook: pull reported IC50 for Proto-oncogene tyrosine-protein kinase receptor Ret (Homo sapiens), entry `CN(C)CCCNC(=O)c1csc2nc(-c3ccc(NC(=O)Nc4cc(C(C)(C)C)on4)cc3)cn12`
Response: 986

====

STUDY SYSTEM: Receptor-type tyrosine-protein kinase FLT3 (Homo sapiens, UniProt P36888)
Sequence (P36888 whole entry): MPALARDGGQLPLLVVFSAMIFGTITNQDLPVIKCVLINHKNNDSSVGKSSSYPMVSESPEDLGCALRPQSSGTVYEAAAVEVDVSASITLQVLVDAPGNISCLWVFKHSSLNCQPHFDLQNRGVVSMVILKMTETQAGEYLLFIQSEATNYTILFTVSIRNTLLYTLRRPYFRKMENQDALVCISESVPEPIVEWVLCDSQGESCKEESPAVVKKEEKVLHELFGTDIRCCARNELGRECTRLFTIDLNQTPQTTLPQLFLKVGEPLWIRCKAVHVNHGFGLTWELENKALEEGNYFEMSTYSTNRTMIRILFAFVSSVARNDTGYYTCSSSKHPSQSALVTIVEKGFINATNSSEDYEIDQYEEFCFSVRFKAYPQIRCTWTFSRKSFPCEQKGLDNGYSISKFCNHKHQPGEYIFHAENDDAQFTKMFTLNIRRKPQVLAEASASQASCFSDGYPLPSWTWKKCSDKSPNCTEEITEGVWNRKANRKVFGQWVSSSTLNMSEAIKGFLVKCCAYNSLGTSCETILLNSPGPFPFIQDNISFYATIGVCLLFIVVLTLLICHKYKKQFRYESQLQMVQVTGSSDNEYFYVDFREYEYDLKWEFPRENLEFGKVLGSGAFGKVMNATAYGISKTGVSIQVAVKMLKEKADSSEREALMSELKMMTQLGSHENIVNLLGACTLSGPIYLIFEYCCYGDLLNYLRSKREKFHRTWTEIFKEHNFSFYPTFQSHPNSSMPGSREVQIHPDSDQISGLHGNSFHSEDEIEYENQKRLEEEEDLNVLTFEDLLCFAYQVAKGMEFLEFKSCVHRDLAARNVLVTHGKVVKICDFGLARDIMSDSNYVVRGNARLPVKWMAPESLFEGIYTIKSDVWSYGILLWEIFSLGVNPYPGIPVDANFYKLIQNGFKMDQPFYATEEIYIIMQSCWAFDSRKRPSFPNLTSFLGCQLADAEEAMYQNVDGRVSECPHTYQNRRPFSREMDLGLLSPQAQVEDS
ASSAY NOTES: Inhibition of human recombinant Flt3
ATTRIBUTE MEASURED: IC50
# number then unit; no other words

CN(C)CCNC(=O)c1csc2nc(-c3ccc(NC(=O)Nc4cc(C(C)(C)C)on4)cc3)cn12
22 nM
CC(C)(C)c1cc(NC(=O)Nc2ccc(-c3cn4c(C(=O)NCCS(C)(=O)=O)csc4n3)cc2)no1
95 nM

Query: Looking for the measured IC50 of `CN(C)CCCNC(=O)c1csc2nc(-c3ccc(NC(=O)Nc4cc(C(C)(C)C)on4)cc3)cn12` , can you help?
Response: 22 nM

====

STUDY SYSTEM: UniProt P21802
ASSAY NOTES: Inhibition of human recombinant FGFR2
ATTRIBUTE MEASURED: IC50

Query: Looking for the measured IC50 of `CN(C)CCCNC(=O)c1csc2nc(-c3ccc(NC(=O)Nc4cc(C(C)(C)C)on4)cc3)cn12` , can you help?
Response: > 10 µM

====

STUDY SYSTEM: Platelet-derived growth factor receptor alpha (Homo sapiens)
ASSAY NOTES: Inhibition of human recombinant PDGFRalpha
ATTRIBUTE MEASURED: pIC50
Give bare numbers, as −log10 of the molar value.

Query: Looking for the measured pIC50 of `CN(C)CCCNC(=O)c1csc2nc(-c3ccc(NC(=O)Nc4cc(C(C)(C)C)on4)cc3)cn12` , can you help?
Response: 6.43

====

STUDY SYSTEM: Serine/threonine-protein kinase Chk1 (Homo sapiens, UniProt O14757)
Sequence (O14757 whole entry): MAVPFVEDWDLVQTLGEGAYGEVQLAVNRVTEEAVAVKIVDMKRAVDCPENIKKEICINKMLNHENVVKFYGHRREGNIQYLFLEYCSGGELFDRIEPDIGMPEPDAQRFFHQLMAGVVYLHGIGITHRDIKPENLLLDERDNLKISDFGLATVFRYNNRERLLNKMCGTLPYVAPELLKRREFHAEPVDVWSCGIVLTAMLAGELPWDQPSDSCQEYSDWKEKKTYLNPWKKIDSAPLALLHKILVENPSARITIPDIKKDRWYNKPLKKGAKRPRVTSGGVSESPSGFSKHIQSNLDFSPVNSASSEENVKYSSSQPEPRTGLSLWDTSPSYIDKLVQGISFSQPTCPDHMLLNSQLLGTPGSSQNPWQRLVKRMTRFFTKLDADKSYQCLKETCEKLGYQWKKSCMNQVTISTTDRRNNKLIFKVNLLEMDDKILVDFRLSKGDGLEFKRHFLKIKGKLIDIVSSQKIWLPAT
ASSAY NOTES: Inhibition of human recombinant CHK1
pIC50: −log10 of the molar value.
ATTRIBUTE MEASURED: pIC50

Query: Looking for the measured pIC50 of `CN(C)CCCNC(=O)c1csc2nc(-c3ccc(NC(=O)Nc4cc(C(C)(C)C)on4)cc3)cn12` , can you help?
Response: < 5.00

====

STUDY SYSTEM: Mast/stem cell growth factor receptor Kit (Homo sapiens, UniProt P10721)
Sequence (P10721 whole entry): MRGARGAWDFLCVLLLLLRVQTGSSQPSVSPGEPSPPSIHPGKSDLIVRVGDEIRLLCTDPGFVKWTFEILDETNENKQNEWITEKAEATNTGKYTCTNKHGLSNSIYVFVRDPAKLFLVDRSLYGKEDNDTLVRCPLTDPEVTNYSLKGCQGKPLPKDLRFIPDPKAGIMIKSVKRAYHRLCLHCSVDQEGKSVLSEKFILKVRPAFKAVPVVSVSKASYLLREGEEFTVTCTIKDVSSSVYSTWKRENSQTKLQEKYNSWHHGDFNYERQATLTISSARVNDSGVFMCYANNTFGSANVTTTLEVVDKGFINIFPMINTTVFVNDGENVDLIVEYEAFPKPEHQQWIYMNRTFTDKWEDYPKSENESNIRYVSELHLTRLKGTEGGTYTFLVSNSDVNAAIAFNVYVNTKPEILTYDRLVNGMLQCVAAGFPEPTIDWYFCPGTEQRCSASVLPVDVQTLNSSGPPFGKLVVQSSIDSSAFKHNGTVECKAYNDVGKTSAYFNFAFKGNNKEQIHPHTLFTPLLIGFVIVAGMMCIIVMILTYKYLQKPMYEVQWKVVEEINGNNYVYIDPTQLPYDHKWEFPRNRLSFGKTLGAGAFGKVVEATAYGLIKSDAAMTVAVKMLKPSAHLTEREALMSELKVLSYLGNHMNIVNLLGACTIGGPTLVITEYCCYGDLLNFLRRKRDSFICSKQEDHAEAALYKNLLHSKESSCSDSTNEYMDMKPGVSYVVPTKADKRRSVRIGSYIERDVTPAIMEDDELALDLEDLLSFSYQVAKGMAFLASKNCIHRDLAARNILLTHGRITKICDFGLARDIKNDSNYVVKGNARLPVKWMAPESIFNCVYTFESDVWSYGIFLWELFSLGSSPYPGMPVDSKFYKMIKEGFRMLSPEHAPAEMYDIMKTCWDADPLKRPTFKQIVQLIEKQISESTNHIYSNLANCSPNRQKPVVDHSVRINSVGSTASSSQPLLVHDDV
ASSAY NOTES: Inhibition of human recombinant ckit
ATTRIBUTE MEASURED: pIC50
Numbers only, as −log10 of the molar value.

Query: Looking for the measured pIC50 of `CN(C)CCCNC(=O)c1csc2nc(-c3ccc(NC(=O)Nc4cc(C(C)(C)C)on4)cc3)cn12` , can you help?
Response: 6.53

====

STUDY SYSTEM: UniProt P17948
ASSAY NOTES: Inhibition of human recombinant Flt1
ATTRIBUTE MEASURED: IC50

Query: Looking for the measured IC50 of `CN(C)CCCNC(=O)c1csc2nc(-c3ccc(NC(=O)Nc4cc(C(C)(C)C)on4)cc3)cn12` , can you help?
Response: 2.83 µM

====

STUDY SYSTEM: RAF proto-oncogene serine/threonine-protein kinase (Homo sapiens)
ASSAY NOTES: Inhibition of human recombinant c-RAF
ATTRIBUTE MEASURED: IC50

Query: Looking for the measured IC50 of `CN(C)CCCNC(=O)c1csc2nc(-c3ccc(NC(=O)Nc4cc(C(C)(C)C)on4)cc3)cn12` , can you help?
Response: > 10 µM

====

STUDY SYSTEM: Epidermal growth factor receptor (Homo sapiens, UniProt P00533)
ASSAY NOTES: Inhibition of human recombinant EGFR
ATTRIBUTE MEASURED: IC50

Query: Looking for the measured IC50 of `CN(C)CCCNC(=O)c1csc2nc(-c3ccc(NC(=O)Nc4cc(C(C)(C)C)on4)cc3)cn12` , can you help?
Response: > 10 µM

====

Tested on: HCT-116
ASSAY NOTES: Cytotoxicity against human HCT116 cells assessed as cell viability after 72 hrs by MTT assay
Type: functional, cell-based
APPLIED CONDITIONS: HCT-116, 72 h
ATTRIBUTE MEASURED: IC50 (µM)
Numbers only, in µM.

Query: Looking for the measured IC50 of `CN(C)CCCNC(=O)c1csc2nc(-c3ccc(NC(=O)Nc4cc(C(C)(C)C)on4)cc3)cn12` , can you help?
Response: 10

====

STUDY SYSTEM: Cyclin-dependent kinase 7 (Homo sapiens, UniProt P50613)
ASSAY NOTES: Inhibition of human recombinant CDK7
pIC50: −log10 of the molar value.
ATTRIBUTE MEASURED: pIC50

Query: Looking for the measured pIC50 of `CN(C)CCCNC(=O)c1csc2nc(-c3ccc(NC(=O)Nc4cc(C(C)(C)C)on4)cc3)cn12` , can you help?
Response: < 5.00

====

STUDY SYSTEM: Vascular endothelial growth factor receptor 3 (Homo sapiens)
ASSAY NOTES: Inhibition of human recombinant Flt4
ATTRIBUTE MEASURED: IC50 (µM)
Answers are plain numbers, in µM.

Query: Looking for the measured IC50 of `CN(C)CCCNC(=O)c1csc2nc(-c3ccc(NC(=O)Nc4cc(C(C)(C)C)on4)cc3)cn12` , can you help?
Response: 1.19

====

STUDY SYSTEM: Serine/threonine-protein kinase PAK 1 (Homo sapiens, UniProt Q13153)
Sequence (Q13153 whole entry): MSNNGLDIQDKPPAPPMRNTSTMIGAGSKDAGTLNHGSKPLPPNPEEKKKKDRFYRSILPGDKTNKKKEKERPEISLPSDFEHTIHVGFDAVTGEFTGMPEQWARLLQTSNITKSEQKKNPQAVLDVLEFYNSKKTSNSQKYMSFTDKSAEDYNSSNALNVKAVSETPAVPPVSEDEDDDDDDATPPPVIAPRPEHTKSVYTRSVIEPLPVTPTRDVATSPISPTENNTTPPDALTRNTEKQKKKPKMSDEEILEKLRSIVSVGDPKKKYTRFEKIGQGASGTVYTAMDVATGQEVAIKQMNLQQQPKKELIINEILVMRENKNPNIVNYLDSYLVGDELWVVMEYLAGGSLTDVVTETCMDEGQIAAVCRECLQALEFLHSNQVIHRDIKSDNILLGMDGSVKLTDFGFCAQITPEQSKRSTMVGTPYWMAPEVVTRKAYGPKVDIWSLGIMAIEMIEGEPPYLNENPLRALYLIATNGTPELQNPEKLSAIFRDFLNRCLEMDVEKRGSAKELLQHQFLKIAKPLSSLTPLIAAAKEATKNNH
ASSAY NOTES: Inhibition of human recombinant PAK1
pIC50: −log10 of the molar value.
ATTRIBUTE MEASURED: pIC50

Query: Notebook: pull reported pIC50 for Serine/threonine-protein kinase PAK 1 (Homo sapiens, UniProt Q13153), entry `CN(C)CCCNC(=O)c1csc2nc(-c3ccc(NC(=O)Nc4cc(C(C)(C)C)on4)cc3)cn12`
Response: < 5.00
